Source: patent US20220089784A1

targetUnderTest: BoNT/A light chain (recombinant) (Clostridium botulinum, UniProt P0DPI0 1-448)
Sequence (P0DPI0 1-448 limits assumed): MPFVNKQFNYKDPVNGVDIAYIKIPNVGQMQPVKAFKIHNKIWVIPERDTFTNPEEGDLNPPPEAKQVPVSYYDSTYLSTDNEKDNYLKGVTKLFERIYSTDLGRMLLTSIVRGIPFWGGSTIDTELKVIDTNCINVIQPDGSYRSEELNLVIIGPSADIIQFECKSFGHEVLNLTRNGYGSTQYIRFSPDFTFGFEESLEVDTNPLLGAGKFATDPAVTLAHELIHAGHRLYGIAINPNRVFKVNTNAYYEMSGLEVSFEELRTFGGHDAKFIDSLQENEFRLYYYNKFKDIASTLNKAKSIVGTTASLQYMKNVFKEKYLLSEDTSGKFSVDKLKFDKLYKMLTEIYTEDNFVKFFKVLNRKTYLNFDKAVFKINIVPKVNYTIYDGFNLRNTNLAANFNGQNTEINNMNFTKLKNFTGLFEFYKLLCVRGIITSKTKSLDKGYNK
experimentNotes: yeast scFv FACS

{"binder": "12A11 scFv (scFv, mouse) scFv: DVQLQESGPGLVKPSQSLSLTCSVTGYSITGGYYWNWIRQFPGNKLEWMGYISYDGSNNYNPSLKNRISITRDTSKNQFFLKLNSVTTEDTATYYCARNMGLWYFDVWGTGTPVTVSAVDLKSGGSTSGSGKPGSGEGSSGSARQIVLTQSPANLSASPGEKVTMTCSASSSVSYMHWYQQKPGSSPKPWIYATSNLASGVPARFSGSGSGTSYSLTISRMEAEDAATYYCQQWSSYPPMYTFGGGTKLELK", "Kd, nM": 25.8}
{"binder": "1D8 scFv (scFv, mouse) scFv: EVQLQESGAELVRPGTSVKLSCKASGYTFTSYWMHWVKQRPGQGLEWIGVIDPSDSYTNYNQKFKGKATLTVDTSSSTAYMQLSSLTSEDSAVYYCARGSSGYVNYWGQGTTLTVSSVDLKSGGSTSGSGKPGSGEGSSGSARDIVMSQSPASLAVSLGQRATISCRASESVDYDGDSYMNWYQQKPGQPPKLLIYAASNLESGIPARFSGSGSGTDFTLNIHPVEEEDAATYYCLQSNEAPWTFGGGTKLEIK", "Kd, nM": 3.35}
{"binder": "10H11 scFv (scFv, mouse) scFv: QIQLLQSGAELVKPGASVKLSCTASGFNIKDYYMHWVKQRPEQGLEWIGRIDPEDGDTEYAPKFQGKATMTADTSSNTAYLQLSSLTSEDSAVYFCARLNYDYPYWYFDVWGTGTTLTVSSVDLKSGGSTSGSGKPGSGEGSSGSARQIVLTQSPAIMSASPGEKVTMTCSASSSVSYMYWYQQKPGSSPRLLIYDTSNLASGVPVRFSGSGSGTSYSLTISRMEAEDAATYYCQQWSSYPLTFGAGTRLELK", "Kd, nM": 0.92}
